target: E-Box DNA; format: binding; conditions: read-out: KD for E-Box DNA measured by EMSA; pH 8
pKd: −log10 of the molar value.
MEASURED_ATTRIBUTE: pKd

Request the reported pKd associated with (AcVKRRTHNVLERQRRNELKRSFFALRDQIPELENNEKAPKVVILKKATAYILSAβC)2-linker (sidechain bridge or staple) [DuoMYC 7] ~6.76
